System: 2Sb-muMax20 (muMax20 with two 1,3-bis(methyl)benzene Cys staples, A13C/A17C and Q88C/A92C, C-terminal Lys)
procedure-text: PBM 8-mer E-score (E-score (rank enrichment, -0.5 to 0.5)); higher = stronger preferential binding
Over roughly 33,000 sequences, “E-score (rank enrichment, -0.5 to 0.5)” has its median near -0.0028; the highest 2% begin near 0.23. This is one part of a sample in which the highest values are shown more often than they occur.
measure-name: PBM 8-mer E-score
Write no unit; give the number alone.

- ACATGTAT: 0.267
- GACTATTA: -0.0384

Lookup result for `CAATAATC` ; measured PBM 8-mer E-score: 0.189

Lookup result for `TACTAATA` ; measured PBM 8-mer E-score: 0.112

Lookup result for `ACATGTAA` ; measured PBM 8-mer E-score: 0.217

* * *

System: 2Sb-muMax20 (muMax20 with two 1,3-bis(methyl)benzene Cys staples, A13C/A17C and Q88C/A92C, C-terminal Lys)
procedure-text: PBM 8-mer E-score (E-score (rank enrichment, -0.5 to 0.5)); higher = stronger preferential binding
The full ranking holds about 33,000 sequences; the median of “E-score (rank enrichment, -0.5 to 0.5)” is about -0.0028, and the highest 2% start at about 0.23. The entries come from a sample that favours the highest values as a whole.
Short version: PBM 8-mer E-score at least 0.03 is satisfied, less is not satisfied.

* ACGTACGT | satisfied

**Query** Form field: PBM 8-mer E-score at least 0.03? Entry: `ATTCGGCA`
**Result** not satisfied

**Query** Form field: PBM 8-mer E-score at least 0.03? Entry: `CAGCTCAG`
**Result** not satisfied

**Query** Form field: PBM 8-mer E-score at least 0.03? Entry: `AAGTCAGC`
**Result** not satisfied

**Query** Form field: PBM 8-mer E-score at least 0.03? Entry: `ATCGTAAG`
**Result** satisfied

**Query** Form field: PBM 8-mer E-score at least 0.03? Entry: `GAATACAA`
**Result** satisfied

* * *

Tested on: 2Sb-muMax20 (muMax20 with two 1,3-bis(methyl)benzene Cys staples, A13C/A17C and Q88C/A92C, C-terminal Lys)
procedure-text: PBM 8-mer E-score (E-score (rank enrichment, -0.5 to 0.5)); higher = stronger preferential binding
The full ranking holds about 33,000 sequences; the median of “E-score (rank enrichment, -0.5 to 0.5)” is about -0.0028, and the highest 2% start at about 0.23. The entries come from a sample that favours the highest values as a whole.
Listed below: PBM 8-mer E-score values for each entry.
Write no unit; give the number alone.

* ATGTAACG | 0.0488

Lookup result for `ATCAAACG` ; measured PBM 8-mer E-score: -0.0315

Lookup result for `CATGTTTA` ; measured PBM 8-mer E-score: 0.239

Lookup result for `ATATTATA` ; measured PBM 8-mer E-score: 0.242

Lookup result for `CTAACCGC` ; measured PBM 8-mer E-score: -0.0848

Lookup result for `CATGTTGA` ; measured PBM 8-mer E-score: 0.257

Lookup result for `GGGTTGTA` ; measured PBM 8-mer E-score: 0.0272

Lookup result for `CATGTTCG` ; measured PBM 8-mer E-score: 0.00518

Lookup result for `CTATACTA` ; measured PBM 8-mer E-score: 0.169

Lookup result for `ATTATATA` ; measured PBM 8-mer E-score: 0.185

Lookup result for `CACTTAAG` ; measured PBM 8-mer E-score: 0.0265

Lookup result for `AGCCTAGA` ; measured PBM 8-mer E-score: -0.0899

Lookup result for `ATGAGGCA` ; measured PBM 8-mer E-score: 0.0329

Lookup result for `AATGTTGA` ; measured PBM 8-mer E-score: 0.0172

* * *

Tested on: 2Sb-muMax20 (muMax20 with two 1,3-bis(methyl)benzene Cys staples, A13C/A17C and Q88C/A92C, C-terminal Lys)
procedure-text: PBM 8-mer E-score (E-score (rank enrichment, -0.5 to 0.5)); higher = stronger preferential binding
In all, about 33,000 sequences were measured (“E-score (rank enrichment, -0.5 to 0.5)”: median about -0.0028, highest 2% from about 0.23 on). What follows is part of a selection rich in the highest values, with near analogues and random picks from the rest.
Listed below: PBM 8-mer E-score values for each entry.
Write no unit; give the number alone.

Consider the worked cases shown below.
• ACTCTTTG = 0.0269
• ATCGACGC = 0.0538
• ATTATTTG = 0.197

Lookup result for `ACCACGAC` ; measured PBM 8-mer E-score: -0.0523

Lookup result for `CTGTAGAA` ; measured PBM 8-mer E-score: 0.0722

Lookup result for `GCACAACA` ; measured PBM 8-mer E-score: 0.263

Lookup result for `CTATTAGA` ; measured PBM 8-mer E-score: -0.0815

Lookup result for `AGGTGCAG` ; measured PBM 8-mer E-score: -0.176

Lookup result for `AGTATTCC` ; measured PBM 8-mer E-score: 0.115

Lookup result for `GGGGCTAA` ; measured PBM 8-mer E-score: 0.0894

Lookup result for `GCTGTGCA` ; measured PBM 8-mer E-score: -0.0668

* * *

System: 2Sb-muMax20 (muMax20 with two 1,3-bis(methyl)benzene Cys staples, A13C/A17C and Q88C/A92C, C-terminal Lys)
procedure-text: PBM 8-mer E-score (E-score (rank enrichment, -0.5 to 0.5)); higher = stronger preferential binding
In all, about 33,000 sequences were measured (“E-score (rank enrichment, -0.5 to 0.5)”: median about -0.0028, highest 2% from about 0.23 on). This is one part of a sample in which the highest values are shown more often than they occur.
Short version: PBM 8-mer E-score at least 0.1 is condition met, less is condition not met.

Some entries whose results are on file:
- CTTAGCCA: condition not met
- CAGGGAGC: condition not met
- CTGTCATC: condition not met
- CCTGCGAA: condition not met
- ACTTACTA: condition met

**Query** Form field: PBM 8-mer E-score at least 0.1? Entry: `GACTCTTA`
**Result** condition met

**Query** Form field: PBM 8-mer E-score at least 0.1? Entry: `CACACATA`
**Result** condition not met

**Query** Form field: PBM 8-mer E-score at least 0.1? Entry: `ACCGCGGT`
**Result** condition not met

**Query** Form field: PBM 8-mer E-score at least 0.1? Entry: `ATATATAC`
**Result** condition met

**Query** Form field: PBM 8-mer E-score at least 0.1? Entry: `AATATCCC`
**Result** condition met

* * *

Listed below: PBM 8-mer E-score values for each entry.
Test system: 2Sb-muMax20 (muMax20 with two 1,3-bis(methyl)benzene Cys staples, A13C/A17C and Q88C/A92C, C-terminal Lys)
procedure-text: PBM 8-mer E-score (E-score (rank enrichment, -0.5 to 0.5)); higher = stronger preferential binding
The full ranking holds about 33,000 sequences; the median of “E-score (rank enrichment, -0.5 to 0.5)” is about -0.0028, and the highest 2% start at about 0.23. The entries come from a sample that favours the highest values as a whole.
Write no unit; give the number alone.

Consider the worked cases shown below.
- AATCAAAC: 0.16
- CTGTTTAA: 0.0361
- GACGAGGA: -0.0396
- AATTAAGT: 0.24
- CCTCAGCC: -0.0948

Lookup result for `AGGACAGG` ; measured PBM 8-mer E-score: -0.155

Lookup result for `ATTCTGCG` ; measured PBM 8-mer E-score: -0.00613

Lookup result for `CGCGTCGC` ; measured PBM 8-mer E-score: -0.0885

* * *

System: 2Sb-muMax20 (muMax20 with two 1,3-bis(methyl)benzene Cys staples, A13C/A17C and Q88C/A92C, C-terminal Lys)
procedure-text: PBM 8-mer E-score (E-score (rank enrichment, -0.5 to 0.5)); higher = stronger preferential binding
In all, about 33,000 sequences were measured (“E-score (rank enrichment, -0.5 to 0.5)”: median about -0.0028, highest 2% from about 0.23 on). What follows is part of a selection rich in the highest values, with near analogues and random picks from the rest.
Listed below: PBM 8-mer E-score values for each entry.
Write no unit; give the number alone.

• GAGTCAGA = -0.0579
• TAAACTAA = 0.233
• CGGGGTAG = 0.147

Lookup result for `TCCGAGCA` ; measured PBM 8-mer E-score: -0.162

Lookup result for `TCGCAGCA` ; measured PBM 8-mer E-score: -0.185

Lookup result for `CTAACTAA` ; measured PBM 8-mer E-score: 0.0585

Lookup result for `CAAACTAA` ; measured PBM 8-mer E-score: 0.0893

Lookup result for `AACCATAA` ; measured PBM 8-mer E-score: 0.13

Lookup result for `CTACGCGC` ; measured PBM 8-mer E-score: -0.0145

Lookup result for `TTAACTAA` ; measured PBM 8-mer E-score: 0.241

Lookup result for `AAAGCTGC` ; measured PBM 8-mer E-score: 0.108
